tested on: AncSZ; test: phosphorylation enrichment, bacterial display (enrichment ratio); higher = better substrate or ligand; peptides without Tyr show the background;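 further: 11-residue human phosphosite peptides and single-mutation variants displayed on the E. coli surface, counted by deep sequencing, each peptide's frequency after selection divided by its frequency in the unselected input library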;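 further: frequency after pTyr selection over input frequency; kinase dosed for 20-30% of maximal phosphorylation in three min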
attribute.measured: phosphorylation enrichment
Just the number, please.

Sample VQVAFYTVMMN [SPATA17_Y84_M86V_YF] ; phosphorylation enrichment observed: 1.18

Sample RQQQDYWLIDV [ANPEP_Y600] ; phosphorylation enrichment observed: 3.3

Sample MFVKSYTIHFS [F5_Y2153_YF] ; phosphorylation enrichment observed: 1

Sample LFPANYVAPMT [GRAP2_Y324] ; phosphorylation enrichment observed: 0.827

Sample LGSNTYPFLLT [SAG_Y120] ; phosphorylation enrichment observed: 1.26

Sample DIDKIYIRTGI [PIK3CA_Y355_V356I] ; phosphorylation enrichment observed: 1.25

Sample ADGLEYSRTEL [MMUT_Y287_G291E] ; phosphorylation enrichment observed: 1.03

Sample PSPMPYAFCQM [FOXL2_Y215_S217F] ; phosphorylation enrichment observed: 1.87

Sample KSVEEYANCHL [TF_Y593_P589S] ; phosphorylation enrichment observed: 0.756

Sample EEKKKYYDAKI [CASP5_Y103_T106A] ; phosphorylation enrichment observed: 0.626

Sample AVLVQYYMEHH [PTPN11_Y80_E76V] ; phosphorylation enrichment observed: 0.987

Sample STDDGCIDLQF [TMEM230_Y29_Y29C] ; phosphorylation enrichment observed: 1.14

Sample ASNFNYFFHRE [KCNA1_Y413_V408A_YF] ; phosphorylation enrichment observed: 1.03

Sample FLGEEYVKAVG [TF_Y674_YF] ; phosphorylation enrichment observed: 0.842

Sample NGLVACKDGKL [PMM2_Y76_Y76C] ; phosphorylation enrichment observed: 0.486

Sample NLMPAYHKCIQ [CYP21A2_Y190_Y191H] ; phosphorylation enrichment observed: 0.91

Sample TEQDPYNNIVH [MMUT_Y364_R369H] ; phosphorylation enrichment observed: 1.05

Sample FQGGTYSKACT [FGG_Y380_S384C_YF] ; phosphorylation enrichment observed: 0.528

Sample RHPLEYLRQYP [NARS2_Y138] ; phosphorylation enrichment observed: 0.664

Sample SLDHPFEKPRK [INAVA_Y333_Y333F] ; phosphorylation enrichment observed: 0.589

Sample TWEKPYECVQC [ZNF24_Y335_G331W] ; phosphorylation enrichment observed: 0.904

Sample SFMVRYNQPRV [GRIN2D_Y736_YF] ; phosphorylation enrichment observed: 0.832
